Exercise: state measured pIC50 for each of the compounds provided.
Tested on: HeLa
Test: Antiproliferative activity against human HeLa cells incubated for 48 hrs by MTT assay
Format: functional, cell-based
In textbook form, pIC50 equals minus log to base ten of the concentration in mol/L.

Request: Look up and state reported pIC50 for Cc1ccccc1C1=NN(c2ccc(S(N)(=O)=O)cc2)C(c2ccc3ccccc3c2)C1 (configuration not stated)
Response: 4.81

Request: Look up and state reported pIC50 for Cc1cccc(C2=NN(c3ccc(S(N)(=O)=O)cc3)C(c3cccc4ccccc34)C2)c1 (configuration not stated)
Response: 5.01

Request: Look up and state reported pIC50 for NS(=O)(=O)c1ccc(N2N=C(c3cccc(Br)c3)CC2c2cccc3ccccc23)cc1 (configuration not stated)
Response: 4.54

Request: Look up and state reported pIC50 for NS(=O)(=O)c1ccc(N2N=C(c3cccc(Br)c3)CC2c2ccc3ccccc3c2)cc1 (configuration not stated)
Response: 4.63

Request: Look up and state reported pIC50 for Cc1ccccc1C1=NN(c2ccc(S(N)(=O)=O)cc2)C(c2cccc3ccccc23)C1 (configuration not stated)
Response: 5.20

Request: Look up and state reported pIC50 for COc1ccc(C2=NN(c3ccc(S(N)(=O)=O)cc3)C(c3cccc4ccccc34)C2)cc1 (configuration not stated)
Response: 4.52

Request: Look up and state reported pIC50 for NS(=O)(=O)c1ccc(N2N=C(c3ccc(Cl)cc3)CC2c2ccc3ccccc3c2)cc1 (configuration not stated)
Response: 4.72

Request: Look up and state reported pIC50 for NS(=O)(=O)c1ccc(N2N=C(c3cccc(I)c3)CC2c2cccc3ccccc23)cc1 (configuration not stated)
Response: 4.58

Request: Look up and state reported pIC50 for NS(=O)(=O)c1ccc(N2N=C(c3ccccc3)CC2c2ccc3ccccc3c2)cc1 (configuration not stated)
Response: 4.88

Request: Look up and state reported pIC50 for COc1cccc(C2=NN(c3ccc(S(N)(=O)=O)cc3)C(c3ccc4ccccc4c3)C2)c1 (configuration not stated)
Response: 4.44

Request: Look up and state reported pIC50 for Cc1ccc(-c2cc(C(F)(F)F)nn2-c2ccc(S(N)(=O)=O)cc2)cc1 [CELECOXIB]
Response: 5.12

Request: Look up and state reported pIC50 for NS(=O)(=O)c1ccc(N2N=C(c3ccccc3)CC2c2cccc3ccccc23)cc1 (configuration not stated)
Response: 4.70

Request: Look up and state reported pIC50 for COc1cccc(C2=NN(c3ccc(S(N)(=O)=O)cc3)C(c3cccc4ccccc34)C2)c1 (configuration not stated)
Response: 4.51

Request: Look up and state reported pIC50 for NS(=O)(=O)c1ccc(N2N=C(c3ccccc3Cl)CC2c2ccc3ccccc3c2)cc1 (configuration not stated)
Response: 4.78

Request: Look up and state reported pIC50 for NS(=O)(=O)c1ccc(N2N=C(c3cccc(I)c3)CC2c2ccc3ccccc3c2)cc1 (configuration not stated)
Response: 4.49

Request: Look up and state reported pIC50 for Cc1cccc(C2=NN(c3ccc(S(N)(=O)=O)cc3)C(c3ccc4ccccc4c3)C2)c1 (configuration not stated)
Response: 4.58

Request: Look up and state reported pIC50 for Cc1ccc(C2=NN(c3ccc(S(N)(=O)=O)cc3)C(c3ccc4ccccc4c3)C2)cc1 (configuration not stated)
Response: 4.76

---

Target: 72 kDa type IV collagenase (Homo sapiens)
Sequence (P08253 whole entry): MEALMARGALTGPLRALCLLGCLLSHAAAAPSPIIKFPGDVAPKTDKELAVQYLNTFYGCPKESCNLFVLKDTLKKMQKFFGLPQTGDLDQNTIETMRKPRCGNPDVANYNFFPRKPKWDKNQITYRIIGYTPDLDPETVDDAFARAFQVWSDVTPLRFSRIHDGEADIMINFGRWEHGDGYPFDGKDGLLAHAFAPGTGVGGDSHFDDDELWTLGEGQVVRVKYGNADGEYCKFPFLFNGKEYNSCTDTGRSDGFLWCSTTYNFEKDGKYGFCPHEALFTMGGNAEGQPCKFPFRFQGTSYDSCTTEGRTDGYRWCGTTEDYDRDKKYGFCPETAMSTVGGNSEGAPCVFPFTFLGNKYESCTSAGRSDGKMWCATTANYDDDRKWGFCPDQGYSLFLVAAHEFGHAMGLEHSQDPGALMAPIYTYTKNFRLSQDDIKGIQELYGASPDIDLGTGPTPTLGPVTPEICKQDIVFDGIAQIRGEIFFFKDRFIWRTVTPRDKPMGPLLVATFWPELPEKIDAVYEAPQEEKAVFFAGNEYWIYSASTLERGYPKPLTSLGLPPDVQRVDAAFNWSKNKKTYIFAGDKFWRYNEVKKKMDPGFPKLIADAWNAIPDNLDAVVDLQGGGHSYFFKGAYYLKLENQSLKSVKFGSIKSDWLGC
Assay: Inhibition of APMA-activated human recombinant MMP2 incubated for 5 mins using 4-nitrophenylacetate substrate by esterase assay
Conditions: read-out: IC50
Exercise: state measured IC50 for each of the compounds provided.
Write it as a number; the unit µM goes unstated.

Request: Look up and state reported IC50 for Cc1ccc(C2=NN(c3ccc(S(N)(=O)=O)cc3)C(c3ccc4ccccc4c3)C2)cc1 (configuration not stated)
Response: 2.81

Request: Look up and state reported IC50 for Cc1ccccc1C1=NN(c2ccc(S(N)(=O)=O)cc2)C(c2cccc3ccccc23)C1 (configuration not stated)
Response: 2.91

Request: Look up and state reported IC50 for NS(=O)(=O)c1ccc(N2N=C(c3cccc(I)c3)CC2c2ccc3ccccc3c2)cc1 (configuration not stated)
Response: 15.7

Request: Look up and state reported IC50 for Cc1ccccc1C1=NN(c2ccc(S(N)(=O)=O)cc2)C(c2ccc3ccccc3c2)C1 (configuration not stated)
Response: 11.4

Request: Look up and state reported IC50 for COc1ccc(C2=NN(c3ccc(S(N)(=O)=O)cc3)C(c3ccc4ccccc4c3)C2)cc1 (configuration not stated)
Response: 9.9

Request: Look up and state reported IC50 for NS(=O)(=O)c1ccc(N2N=C(c3ccc(Cl)cc3)CC2c2cccc3ccccc23)cc1 (configuration not stated)
Response: 2.7

Request: Look up and state reported IC50 for NS(=O)(=O)c1ccc(N2N=C(c3cccc(Br)c3)CC2c2cccc3ccccc23)cc1 (configuration not stated)
Response: 11.4

---

Target: Matrix metalloproteinase-9 (Homo sapiens, UniProt P14780)
Sequence (P14780 whole entry): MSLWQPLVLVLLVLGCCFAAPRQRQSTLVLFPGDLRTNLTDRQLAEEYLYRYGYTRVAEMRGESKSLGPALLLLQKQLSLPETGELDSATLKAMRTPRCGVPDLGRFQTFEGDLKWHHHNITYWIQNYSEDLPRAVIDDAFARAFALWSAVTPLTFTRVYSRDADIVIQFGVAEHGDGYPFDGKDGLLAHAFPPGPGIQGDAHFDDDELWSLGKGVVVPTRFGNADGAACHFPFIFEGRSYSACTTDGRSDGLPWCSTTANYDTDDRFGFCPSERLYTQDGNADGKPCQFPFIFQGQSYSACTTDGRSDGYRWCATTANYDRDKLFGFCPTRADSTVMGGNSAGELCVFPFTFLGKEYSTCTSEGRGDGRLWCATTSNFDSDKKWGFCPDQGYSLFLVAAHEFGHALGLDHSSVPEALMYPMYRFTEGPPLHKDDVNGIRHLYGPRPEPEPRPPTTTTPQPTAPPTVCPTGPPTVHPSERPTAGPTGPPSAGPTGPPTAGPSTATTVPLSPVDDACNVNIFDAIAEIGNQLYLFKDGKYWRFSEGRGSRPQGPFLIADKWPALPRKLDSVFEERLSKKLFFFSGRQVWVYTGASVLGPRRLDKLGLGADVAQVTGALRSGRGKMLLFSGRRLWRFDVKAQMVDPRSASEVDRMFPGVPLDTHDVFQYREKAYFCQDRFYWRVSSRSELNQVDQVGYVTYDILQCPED
Assay: Inhibition of APMA-activated human recombinant MMP9 incubated for 5 mins using 4-nitrophenylacetate substrate by esterase assay
measure.name: pIC50
In textbook form, pIC50 equals minus log to base ten of the concentration in mol/L.

Request: Look up and state reported pIC50 for Cc1ccc(C2=NN(c3ccc(S(N)(=O)=O)cc3)C(c3cccc4ccccc34)C2)cc1 (centres undefined)
Response: 4.80

Request: Look up and state reported pIC50 for `C[C@@]1(O)c2cccc(O)c2C(=O)C2=C(O)[C@]3(O)C(=O)C(C(N)=O)=C(O)C[C@@H]3C[C@@H]21`
Response: 5.60

Request: Look up and state reported pIC50 for COc1ccc(C2=NN(c3ccc(S(N)(=O)=O)cc3)C(c3ccc4ccccc4c3)C2)cc1 (centres undefined)
Response: 4.72

Request: Look up and state reported pIC50 for NS(=O)(=O)c1ccc(N2N=C(c3ccccc3Cl)CC2c2cccc3ccccc23)cc1 (centres undefined)
Response: 4.92

Request: Look up and state reported pIC50 for COc1cccc(C2=NN(c3ccc(S(N)(=O)=O)cc3)C(c3cccc4ccccc34)C2)c1 (centres undefined)
Response: 5.17

Request: Look up and state reported pIC50 for NS(=O)(=O)c1ccc(N2N=C(c3cccc(Br)c3)CC2c2ccc3ccccc3c2)cc1 (centres undefined)
Response: 4.86

Request: Look up and state reported pIC50 for NS(=O)(=O)c1ccc(N2N=C(c3ccc(Cl)cc3)CC2c2cccc3ccccc23)cc1 (centres undefined)
Response: 5.26

Request: Look up and state reported pIC50 for NS(=O)(=O)c1ccc(N2N=C(c3ccc(F)cc3)CC2c2ccc3ccccc3c2)cc1 (centres undefined)
Response: 4.70

Request: Look up and state reported pIC50 for COc1ccc(C2=NN(c3ccc(S(N)(=O)=O)cc3)C(c3cccc4ccccc34)C2)cc1 (centres undefined)
Response: 5.06

---

Test system: HepG2
Assay: Antiproliferative activity against human HepG2 cells incubated for 48 hrs by MTT assay
Format: functional, cell-based
Settings: HepG2, 48 h
Mark t only when IC50 stays strictly below 20 µM. Values equal to the cut-off are f.

Request: Lab note: IC50 threshold 20 µM. Does this compound come in strictly under it? NS(=O)(=O)c1ccc(N2N=C(c3ccccc3)CC2c2ccc3ccccc3c2)cc1 (centres undefined)
Response: t

Request: Lab note: IC50 threshold 20 µM. Does this compound come in strictly under it? NS(=O)(=O)c1ccc(N2N=C(c3ccccc3)CC2c2cccc3ccccc23)cc1 (centres undefined)
Response: t

Request: Lab note: IC50 threshold 20 µM. Does this compound come in strictly under it? CCOc1ccc(C2=NN(c3ccc(S(N)(=O)=O)cc3)C(c3cccc4ccccc34)C2)cc1 (centres undefined)
Response: t

Request: Lab note: IC50 threshold 20 µM. Does this compound come in strictly under it? COc1cccc(C2=NN(c3ccc(S(N)(=O)=O)cc3)C(c3cccc4ccccc34)C2)c1 (centres undefined)
Response: f

Request: Lab note: IC50 threshold 20 µM. Does this compound come in strictly under it? NS(=O)(=O)c1ccc(N2N=C(c3cccc(F)c3)CC2c2ccc3ccccc3c2)cc1 (centres undefined)
Response: f

Request: Lab note: IC50 threshold 20 µM. Does this compound come in strictly under it? COc1ccc(C2=NN(c3ccc(S(N)(=O)=O)cc3)C(c3cccc4ccccc34)C2)cc1 (centres undefined)
Response: f

Request: Lab note: IC50 threshold 20 µM. Does this compound come in strictly under it? CCOc1ccc(C2=NN(c3ccc(S(N)(=O)=O)cc3)C(c3ccc4ccccc4c3)C2)cc1 (centres undefined)
Response: t

Request: Lab note: IC50 threshold 20 µM. Does this compound come in strictly under it? COc1ccc(C2=NN(c3ccc(S(N)(=O)=O)cc3)C(c3ccc4ccccc4c3)C2)cc1 (centres undefined)
Response: f

Request: Lab note: IC50 threshold 20 µM. Does this compound come in strictly under it? NS(=O)(=O)c1ccc(N2N=C(c3cccc(Br)c3)CC2c2ccc3ccccc3c2)cc1 (centres undefined)
Response: f

Request: Lab note: IC50 threshold 20 µM. Does this compound come in strictly under it? NS(=O)(=O)c1ccc(N2N=C(c3ccccc3Cl)CC2c2cccc3ccccc23)cc1 (centres undefined)
Response: t

Request: Lab note: IC50 threshold 20 µM. Does this compound come in strictly under it? Cc1ccc(C2=NN(c3ccc(S(N)(=O)=O)cc3)C(c3cccc4ccccc34)C2)c(C)c1 (centres undefined)
Response: t

Request: Lab note: IC50 threshold 20 µM. Does this compound come in strictly under it? Cc1ccccc1C1=NN(c2ccc(S(N)(=O)=O)cc2)C(c2cccc3ccccc23)C1 (centres undefined)
Response: t

Request: Lab note: IC50 threshold 20 µM. Does this compound come in strictly under it? Cc1cccc(C2=NN(c3ccc(S(N)(=O)=O)cc3)C(c3cccc4ccccc34)C2)c1 (centres undefined)
Response: t

Request: Lab note: IC50 threshold 20 µM. Does this compound come in strictly under it? NS(=O)(=O)c1ccc(N2N=C(c3ccc(Cl)cc3)CC2c2ccc3ccccc3c2)cc1 (centres undefined)
Response: f

Request: Lab note: IC50 threshold 20 µM. Does this compound come in strictly under it? Cc1ccc(C2=NN(c3ccc(S(N)(=O)=O)cc3)C(c3ccc4ccccc4c3)C2)cc1 (centres undefined)
Response: t

Request: Lab note: IC50 threshold 20 µM. Does this compound come in strictly under it? Cc1ccc(C2=NN(c3ccc(S(N)(=O)=O)cc3)C(c3cccc4ccccc34)C2)cc1 (centres undefined)
Response: t

Request: Lab note: IC50 threshold 20 µM. Does this compound come in strictly under it? Cc1ccccc1C1=NN(c2ccc(S(N)(=O)=O)cc2)C(c2ccc3ccccc3c2)C1 (centres undefined)
Response: t

Request: Lab note: IC50 threshold 20 µM. Does this compound come in strictly under it? NS(=O)(=O)c1ccc(N2N=C(c3cccc(I)c3)CC2c2ccc3ccccc3c2)cc1 (centres undefined)
Response: t

Request: Lab note: IC50 threshold 20 µM. Does this compound come in strictly under it? NS(=O)(=O)c1ccc(N2N=C(c3cccc(I)c3)CC2c2cccc3ccccc23)cc1 (centres undefined)
Response: t
